Hey, just so you know, these numbers are from the supplement of paper PMC10567573.

Here, each record is paired with measured protein stability index data.
B1: PBXIP1 (parent)
chain: FGEDGIFRHDRLRFRDFVDALEDS

Variants of: B1
Test: protein stability index of a GFP-peptide fusion (GPS, HEK-293T) (PSI 1-6); higher = more stable;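 further: lentivirally expressed fusions sorted by FACS into six bins by GFP to DsRed ratio, PSI derived from sequencing read proportions per bin multiplied by bin number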
Conditions: c terminus: a fixed tail appended
The answer should be written as a number, with no unit following it.

Below: 2 variants and their reported protein stability index.
[
  {
    "Mutant Id": "R8M",
    "Result Number": 3.06
  },
  {
    "Mutant Id": "L21I",
    "Result Number": 3.07
  }
]

Please examine the following record next.
Could you share which protein stability index value was measured for "D23N" ?
2.94
